Form field: shrunken log2 fold change (one value per entry).
tested on: Escherichia coli TOP10; test: shrunken log2 fold change of peptide-encoding DNA abundance (4.5 h post-induction vs induction); higher = less antimicrobial activity (less host growth inhibition); settings: time post-induction: 4.5 h; library: site-saturation at positions 5, 18, 19, 20
PARAMETER_MEASURED: shrunken log2 fold change

>>> data_value("RRIRVRPPRLPRPRPRPMTAPRP")
-0.12
>>> data_value("RRIRLRPPRLPRPRPRPHFMPRP")
0.0603
>>> data_value("RRIRKRPPRLPRPRPRPNNEPRP")
0.0823
>>> data_value("RRIRMRPPRLPRPRPRPSSWPRP")
0.477
>>> data_value("RRIRPRPPRLPRPRPRPCITPRP")
-0.373
>>> data_value("RRIRHRPPRLPRPRPRPKNYPRP")
-0.766
>>> data_value("RRIRVRPPRLPRPRPRPIKWPRP")
-0.161
>>> data_value("RRIRKRPPRLPRPRPRPWKKPRP")
0.0118

* * *

system: Escherichia coli TOP10; assay: shrunken log2 fold change of peptide-encoding DNA abundance (4.5 h post-induction vs induction); higher = less antimicrobial activity (less host growth inhibition); conditions: time post-induction: 4.5 h; library: site-saturation at positions 5, 18, 19, 20;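 further: peptides expressed intracellularly from a pBAD plasmid library in pooled LB shake-flask culture, induced with 0.3% L-arabinose, DNA abundance read by NGS, three biological replicates, DESeq2 with apeglm shrinkage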
PARAMETER_MEASURED: shrunken log2 fold change

>>> data_value("RRIRWRPPRLPRPRPRPYKIPRP")
-0.286
>>> data_value("RRIRNRPPRLPRPRPRPAPIPRP")
0.169
>>> data_value("RRIRWRPPRLPRPRPRPYCHPRP")
-0.437
>>> data_value("RRIRARPPRLPRPRPRPNNMPRP")
-0.516
>>> data_value("RRIRQRPPRLPRPRPRPTDMPRP")
-0.0372
>>> data_value("RRIRERPPRLPRPRPRPYTWPRP")
-0.161
>>> data_value("RRIRCRPPRLPRPRPRPCELPRP")
-0.146
>>> data_value("RRIRYRPPRLPRPRPRPIITPRP")
-0.667
>>> data_value("RRIRQRPPRLPRPRPRPLHAPRP")
0.164
>>> data_value("RRIRVRPPRLPRPRPRPQHSPRP")
-0.245
>>> data_value("RRIRGRPPRLPRPRPRPCTRPRP")
0.0901
>>> data_value("RRIRLRPPRLPRPRPRPWVHPRP")
-0.3
>>> data_value("RRIRCRPPRLPRPRPRPGQLPRP")
-0.00796
>>> data_value("RRIRGRPPRLPRPRPRPTYFPRP")
0.0176
>>> data_value("RRIRIRPPRLPRPRPRPISLPRP")
-0.129
>>> data_value("RRIRVRPPRLPRPRPRPEPCPRP")
-0.0507
>>> data_value("RRIRVRPPRLPRPRPRPWTGPRP")
-0.0167
>>> data_value("RRIRHRPPRLPRPRPRPFSCPRP")
-0.0244
>>> data_value("RRIRGRPPRLPRPRPRPQKDPRP")
0.346
>>> data_value("RRIRPRPPRLPRPRPRPSVLPRP")
0.0488
>>> data_value("RRIRLRPPRLPRPRPRPLCQPRP")
-0.125
>>> data_value("RRIRFRPPRLPRPRPRPWNMPRP")
-0.24
>>> data_value("RRIRSRPPRLPRPRPRPMQMPRP")
0.512
>>> data_value("RRIRIRPPRLPRPRPRPYLKPRP")
0.000419
>>> data_value("RRIRQRPPRLPRPRPRPLAKPRP")
-0.041
>>> data_value("RRIRLRPPRLPRPRPRPCPNPRP")
0.0236
>>> data_value("RRIRMRPPRLPRPRPRPWQVPRP")
-0.0506
>>> data_value("RRIRSRPPRLPRPRPRPNHIPRP")
-0.651
>>> data_value("RRIRARPPRLPRPRPRPAMCPRP")
0.303
>>> data_value("RRIRARPPRLPRPRPRPFEAPRP")
0.564
>>> data_value("RRIRRRPPRLPRPRPRPWPGPRP")
0.287
>>> data_value("RRIRARPPRLPRPRPRPCMCPRP")
0.118
